experimental.target: biotinylated human IL-17A / AF647-labeled human IL-17RA (Homo sapiens, UniProt Q16552)
Sequence (Q16552 24-155): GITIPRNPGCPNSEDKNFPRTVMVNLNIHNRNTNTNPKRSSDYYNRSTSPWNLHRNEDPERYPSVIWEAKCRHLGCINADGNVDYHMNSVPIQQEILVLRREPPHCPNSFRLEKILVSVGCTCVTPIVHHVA
experiment.description: Human IL-17A×IL-17RA TR-FRET assay
Format: binding
assay.setup: TR-FRET, biotinylated human IL-17A 5 nM, AF647-labeled human IL-17RA 30 nM; read-out: IL17AA FRET/ IL17Rawt IC50
Description: Human IL-17A×IL-17RA TR-FRET Assay Each compound concentration is tested in duplicate. The final total assay volume is 10 μL. Each plate contains test compounds in columns 1-22 and controls in columns 23 and 24. The neutral control (NC) contains all the assay components, but DMSO instead of test compound. […] The fluorescence values for emission at 615 nm and 665 nm are loaded to the evaluation software Helios. […]
measurement.name: IC50 (nM)

a = Cc1c(-c2ccc(NC(=O)[C@@H](NC(=O)c3ccc4n3CCN(C)C4)C3CCCCC3)cc2F)ccc[n+]1[O-]
b = Cc1cc[n+]([O-])c(C)c1-c1ccc(NC(=O)[C@@H](NC(=O)c2ccnn2C(C)C)C2CCCCCC2)cc1
c = Cc1cc[n+]([O-])c(C)c1-c1ccc(NC(=O)[C@@H](NC(=O)c2ccnn2C)C2CCC(F)(F)C2)cc1 (stereo partly shown)
# input Rank the 3 compounds shown above by IC50, smallest number first. Output spec: labels arranged per the requested ranking.
# output b, a, c
(b: 25 nM, a: 228 nM, c: 489 nM)

a = Cc1nocc1C(=O)N[C@H](C(=O)Nc1ccc(-c2c(Cl)cc[n+]([O-])c2C)c(F)c1)C1CCC(F)(F)CC1
b = Cc1cc[n+]([O-])c(C)c1-c1ccc(NC(=O)[C@@H](NC(=O)c2ccc3n2CCN(C)C3)C2CCCCCC2)cc1
c = Cc1cc[n+]([O-])c(C(F)F)c1-c1ccc(NC(=O)[C@@H](NC(=O)c2ccnn2C)C2CCCCC2)cc1
# input Ascending by IC50, please: list the compounds accordingly. Answer by listing the labels in the order asked for.
# output a, b, c
(a: 50 nM, b: 94 nM, c: 1600 nM)
